biological target: Opioid receptors; mu & delta (Rattus norvegicus) (UniProt P33533+P33535); assay: Selectivity as the ratio of IC50 value against mu receptor to that of delta receptor.; type: protein assay
Sequence (P33533 whole entry, looked up): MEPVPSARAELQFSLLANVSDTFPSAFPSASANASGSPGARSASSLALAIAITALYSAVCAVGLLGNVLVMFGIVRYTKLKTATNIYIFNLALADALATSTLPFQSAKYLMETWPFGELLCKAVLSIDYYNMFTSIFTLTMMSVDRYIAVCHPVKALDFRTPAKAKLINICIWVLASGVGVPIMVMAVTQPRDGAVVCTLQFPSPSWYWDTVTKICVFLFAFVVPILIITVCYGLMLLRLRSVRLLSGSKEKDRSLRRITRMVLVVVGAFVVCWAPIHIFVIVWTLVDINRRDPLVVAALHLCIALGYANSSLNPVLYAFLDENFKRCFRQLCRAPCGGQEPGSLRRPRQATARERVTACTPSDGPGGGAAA
Sequence (P33535 whole entry, looked up): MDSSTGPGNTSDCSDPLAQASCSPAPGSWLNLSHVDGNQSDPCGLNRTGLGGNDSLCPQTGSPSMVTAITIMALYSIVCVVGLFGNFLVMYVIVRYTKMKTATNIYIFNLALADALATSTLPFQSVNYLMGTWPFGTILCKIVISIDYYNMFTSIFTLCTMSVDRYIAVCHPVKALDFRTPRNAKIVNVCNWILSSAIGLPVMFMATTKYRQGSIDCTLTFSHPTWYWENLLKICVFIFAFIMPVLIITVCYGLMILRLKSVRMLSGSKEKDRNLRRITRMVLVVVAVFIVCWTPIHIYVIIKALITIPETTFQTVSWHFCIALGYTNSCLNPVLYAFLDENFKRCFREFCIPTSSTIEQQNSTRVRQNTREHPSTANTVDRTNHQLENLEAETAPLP
MEASURED QUANTITY: Selectivity

So the reported Selectivity for Oc1cccc(C23CCNC(Cc4[nH]c5ccccc5c42)C3)c1 (centres undefined) , on Opioid receptors; mu & delta (Rattus norvegicus) (UniProt P33533+P33535), turned out to be 5.14

Opioid receptors; mu & delta (Rattus norvegicus) (UniProt P33533+P33535) assay, compound CN1CCC2(c3cccc(O)c3)CCCC1C2 (stereo in doubt; (-)-1) , recorded Selectivity = < 0.02

Entry Oc1cccc(C23CCN(Cc4ccccc4)C(Cc4[nH]c5ccccc5c42)C3)c1 (centres undefined) : Selectivity on Opioid receptors; mu & delta (Rattus norvegicus) (UniProt P33533+P33535) = 2.76

Bench note, Opioid receptors; mu & delta (Rattus norvegicus) (UniProt P33533+P33535): entry CCN1CCC2(c3cccc(O)c3)CC1Cc1[nH]c3ccccc3c12 (centres undefined) , its Selectivity = 5.4

Measured Selectivity (Opioid receptors; mu & delta (Rattus norvegicus) (UniProt P33533+P33535)), entry Oc1cccc(C23CCN(CC4CC4)C(Cc4[nH]c5ccccc5c42)C3)c1 (centres undefined) : 2.14

Let me check: CN1CCC2(c3cccc(O)c3)CC(=O)CC1C2 (stereo in doubt; 13) , system Opioid receptors; mu & delta (Rattus norvegicus) (UniProt P33533+P33535), measured Selectivity is 0.03

# Selectivity measured on Opioid receptors; mu & delta (Rattus norvegicus) (UniProt P33533+P33535) for item CN1CCC2(c3cccc(O)c3)CC(=O)CC1C2 (single isomer, unassigned; (-)) = 0.12

Measured on Opioid receptors; mu & delta (Rattus norvegicus) (UniProt P33533+P33535), CN1CCC2(c3cccc(O)c3)C/C(=N/Nc3ccccc3)CC1C2 (centres undefined) has a documented Selectivity of 0.08

Entry CCCCCCCN1CCC2(c3cccc(O)c3)CC1Cc1[nH]c3ccccc3c12 (centres undefined) under Opioid receptors; mu & delta (Rattus norvegicus) (UniProt P33533+P33535) had Selectivity of 1.43

For CCCCN1CCC2(c3cccc(O)c3)CC1Cc1[nH]c3ccccc3c12 (centres undefined) on Opioid receptors; mu & delta (Rattus norvegicus) (UniProt P33533+P33535), measured Selectivity was 4.02

Measured Selectivity (Opioid receptors; mu & delta (Rattus norvegicus) (UniProt P33533+P33535)), entry CN1CCC2(c3cccc(O)c3)CC1C[C@@H](NC(=O)Cc1ccccc1)C2 (some centres undefined) : 0.52

The reported Selectivity value, Opioid receptors; mu & delta (Rattus norvegicus) (UniProt P33533+P33535), for Oc1cccc(C23CCN(CCc4ccccc4)C(Cc4[nH]c5ccccc5c42)C3)c1 (single isomer, unassigned; (-)) reads 4.03

Selectivity for Opioid receptors; mu & delta (Rattus norvegicus) (UniProt P33533+P33535) with input Oc1cccc(C23CCN(CCc4ccccc4)C(Cc4[nH]c5ccccc5c42)C3)c1 (centres undefined) equals 8.88

Known value: Opioid receptors; mu & delta (Rattus norvegicus) (UniProt P33533+P33535) Selectivity of the compound CCCCCCN1CCC2(c3cccc(O)c3)CC1Cc1[nH]c3ccccc3c12 (centres undefined) equals 2.08

Noted Selectivity for CN1CCC2(c3cccc(O)c3)CC1Cc1[nH]c3ccccc3c12 (single isomer, unassigned; (-)) , tested on Opioid receptors; mu & delta (Rattus norvegicus) (UniProt P33533+P33535): 2.54

Log: Opioid receptors; mu & delta (Rattus norvegicus) (UniProt P33533+P33535), compound CN1CCC2(c3cccc(O)c3)Cc3[nH]c4ccccc4c3C1C2 (centres undefined) , Selectivity = < 0.04

Case CN1CCC2(c3cccc(O)c3)Cc3[nH]c4c(ccc5ccccc54)c3C1C2 (centres undefined) , Opioid receptors; mu & delta (Rattus norvegicus) (UniProt P33533+P33535), Selectivity recorded as 0.35

Item CN1CCC2(c3cccc(O)c3)CCCC1C2 (single isomer, unassigned; (+)) was tested on Opioid receptors; mu & delta (Rattus norvegicus) (UniProt P33533+P33535); the reported Selectivity is < 0.02

---

molecular target: Mu-type opioid receptor (Rattus norvegicus)
Sequence (P33535 whole entry): as the sequence (P33535 whole entry, looked up) above
One threshold, 50 nM, splits the recorded IC50 values: lower ones are Criterion met, equal or higher ones are Criterion not met.

For orientation, consider the following solved cases.
# COMPOUND, ASSIGNED CLASS
records = [
    ("CN1CCC2(c3cccc(O)c3)C/C(=N/Nc3ccccc3)CC1C2 (stereo unspecified)", "Criterion met"),
    ("Oc1cccc(C23CCN(CCc4ccccc4)C(Cc4[nH]c5ccccc5c42)C3)c1 (single isomer, unassigned; (-))", "Criterion met"),
]

Q: Strictly below 50 nM: is that where IC50 of CCCCCCN1CCC2(c3cccc(O)c3)CC1Cc1[nH]c3ccccc3c12 (stereo unspecified) sits?
Result: Criterion not met

Q: Dear reviewer, please state whether CN1CCC2(c3cccc(O)c3)Cc3[nH]c4c(ccc5ccccc54)c3C1C2 (stereo unspecified) has IC50 strictly beneath 50 nM.
Result: Criterion not met

Q: Just wondering, is IC50 of Oc1cccc(C23CCN(CCc4ccccc4)C(Cc4[nH]c5ccccc5c42)C3)c1 (single isomer, unassigned; (+)) below 50 nM?
Result: Criterion not met

---

target: Kappa-type opioid receptor (Cavia porcellus, UniProt P41144); test: Inhibition of [3H]U-69593 radioligand binding to Guinea pig opioid receptor kappa 1.
Sequence (P41144 whole entry): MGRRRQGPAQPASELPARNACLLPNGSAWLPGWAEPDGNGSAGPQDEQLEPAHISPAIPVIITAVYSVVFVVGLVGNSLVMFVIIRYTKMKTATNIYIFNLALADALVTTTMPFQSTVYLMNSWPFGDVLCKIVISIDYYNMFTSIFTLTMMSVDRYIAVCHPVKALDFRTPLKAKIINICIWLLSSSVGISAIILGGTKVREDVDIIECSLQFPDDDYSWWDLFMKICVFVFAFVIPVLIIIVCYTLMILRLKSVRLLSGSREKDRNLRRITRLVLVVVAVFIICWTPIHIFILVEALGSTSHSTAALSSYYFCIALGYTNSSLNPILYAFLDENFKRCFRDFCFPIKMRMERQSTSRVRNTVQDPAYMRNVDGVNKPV
So basically: is IC50 under 1 µM? Then T. Not under? Then F.

Solved entries:
# COMPOUND, ASSIGNED CLASS
records = [
    ("CN1CCC2(c3cccc(O)c3)Cc3nc4ccccc4cc3C1C2 (configuration not stated)", "T"),
    ("Oc1cccc(C23CCN(CC4CC4)C(Cc4[nH]c5ccccc5c42)C3)c1 (configuration not stated)", "T"),
    ("CCCCCCCN1CCC2(c3cccc(O)c3)CC1Cc1[nH]c3ccccc3c12 (configuration not stated)", "F"),
]

Q: Is IC50 of Oc1cccc(C23CCN(Cc4ccccc4)C(Cc4[nH]c5ccccc5c42)C3)c1 (configuration not stated) strictly below 1 µM?
Result: T

Q: Dear colleague, could you confirm whether IC50 of C=CCN1CCC2(c3cccc(O)c3)CC1Cc1[nH]c3ccccc3c12 (configuration not stated) falls below 1 µM? Thanks.
Result: F

Q: Please indicate whether the reported IC50 of CCCCN1CCC2(c3cccc(O)c3)CC1Cc1[nH]c3ccccc3c12 (configuration not stated) is strictly below 1 µM.
Result: F

Q: Identify whether the compound CN1CCC2(c3cccc(O)c3)CC1C[C@@H](NC(=O)Cc1ccccc1)C2 (some centres not stated) records IC50 below 1 µM.
Result: F

Q: Please state whether IC50 is below 1 µM for Oc1cccc(C23CCN(CCc4ccccc4)C(Cc4[nH]c5ccccc5c42)C3)c1 (single isomer, unassigned; (-))
Result: F

Q: Lab note: confirm whether the reported IC50 for this compound is below 1 µM, equality not counting. compound: CN1CCC2(c3cccc(O)c3)CC(=O)CC1C2 (stereo in doubt; 13)
Result: F

Q: Hello, I'm reviewing records and need to know if IC50 of CCCCCCN1CCC2(c3cccc(O)c3)CC1Cc1[nH]c3ccccc3c12 (configuration not stated) is below 1 µM. Could you check?
Result: F

Q: Item Oc1cccc(C23CCN(CCc4ccccc4)C(Cc4[nH]c5ccccc5c42)C3)c1 (single isomer, unassigned; (+)) : IC50 beneath 1 µM, strictly?
Result: F

Q: Is IC50 of CN1CCC2(c3cccc(O)c3)CCCC1C2 (stereo in doubt; (-)-1) strictly below 1 µM?
Result: T

Q: # strict comparison: is reported IC50 < 1 µM? input = CN1CCC2(c3cccc(O)c3)CCCC1C2 (single isomer, unassigned; (+))
Result: T

Q: Given CN1CCC2(c3cccc(O)c3)CC1Cc1[nH]c3ccccc3c12 (configuration not stated) , is recorded IC50 strictly lower than 1 µM?
Result: F

Q: Confirm or reject: IC50 of CN1CCC2(c3cccc(O)c3)Cc3[nH]c4ccccc4c3C1C2 (configuration not stated) lies strictly below 1 µM
Result: T

Q: Bench note: check whether CN1CCC2(c3cccc(O)c3)Cc3[nH]c4c(ccc5ccccc54)c3C1C2 (configuration not stated) shows IC50 below 1 µM
Result: F

---

molecular target: Delta-type opioid receptor (Rattus norvegicus); test: Inhibition of [3H]DADLE radioligand binding to rat brain opioid receptor delta 1.
MEASURED QUANTITY: IC50 (µM)
Report the value in µM with no unit label.

# COMPOUND, MEASURED QUANTITY, REPORTED
records = [
    ("CN1CCC2(c3cccc(O)c3)CC(=O)CC1C2 (single isomer, unassigned; (-))", "IC50", 0.273),
    ("CN1CCC2(c3cccc(O)c3)CC1C[C@@H](NC(=O)Cc1ccccc1)C2 (stereo not given in full)", "IC50", 0.227),
    ("CN1CCC2(c3cccc(O)c3)CC1Cc1[nH]c3ccccc3c12 (single isomer, unassigned; (-))", "IC50", 0.0056),
]

Next, consider the following compound.
Looking up CCN1CCC2(c3cccc(O)c3)CC1Cc1[nH]c3ccccc3c12 (stereo not given) , I see its IC50 listed as 0.233
